Target: T1, PUF4 RNA-binding domain (Saccharomyces cerevisiae, UniProt P25339 537-888)
T1 sequence: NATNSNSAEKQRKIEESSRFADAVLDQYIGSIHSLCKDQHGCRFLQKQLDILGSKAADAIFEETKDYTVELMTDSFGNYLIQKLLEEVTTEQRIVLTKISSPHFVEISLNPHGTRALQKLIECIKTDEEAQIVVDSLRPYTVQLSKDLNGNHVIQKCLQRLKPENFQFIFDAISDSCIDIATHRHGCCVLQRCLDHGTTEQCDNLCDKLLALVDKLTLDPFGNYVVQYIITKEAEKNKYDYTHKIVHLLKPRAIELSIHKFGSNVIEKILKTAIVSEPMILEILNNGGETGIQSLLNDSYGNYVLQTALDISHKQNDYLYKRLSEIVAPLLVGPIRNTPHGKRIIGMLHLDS
Assay: Mg; RNA-MaP; 20 mM Na-HEPES pH 7.4, 30 mM KOAc, 0.75 mM MgCl2, 0.1% Tween-20, 5% glycerol, 0.1 mg/mL BSA, 2 mM DTT; 25 C; 0.0125-409.6 nM protein
Details: tags: N-His6-TEV cleaved; C-SNAP kept, Cy3B-labelled; label: tethered on chip by stalled RNA polymerase
pKd: −log10 of the molar value.
Assign class by pKd: not lower than 8 means class 1; lower than 8 means class 0.

A selection of reference data follows.
BINDER	CLASS NAME
If_S2_P3E.2_K3.1_C3.2_H3.1_A3.1_F3.1_T3.2 (ssRNA) RNA: UUUGAUUAAUAUGAUAUCGUUCUUUCUCUUGUAUAUAUAUUCUUUCUCGAUAUCAUAUUAAUCUUU	class 1
UCUCUUUGUAUUACUCUCUCUU (ssRNA) [Ib_S1_P5E.1_K5.1_C5.1_H5.1_A5.1_F5.1_[T8C]_[A10C]_T5.1]	class 0
UCUCUUAGUAUAUAUAAAUCUCUU (ssRNA) [Id_ii_S1_P3E.3_K3.2_C3.2_[C-2A]_[T-1G]_H3.2_A3.1_F3.1_T3.2_[T9A]]	class 0
Ib_S4_P4E.1_K4.1_C4.1_H4.1_[T1C]_[G2A]_A4.1_F4.1_T4.1 (ssRNA) RNA: UUUGACAACUGAUCGUUCUUUCUCAUAUAUUAUUCUUUCUCGAUCAGUUGUCUUU	class 0
Ic_S2_P4E.1_K4.1_C4.1_H4.1_A4.1_[T5C]_[T7A]_F4.1_[T8C]_[A9C]_T4.1 (ssRNA) RNA: UUUGAUUAAUAUGAUAUCGUUCUUUCUUGUACAACCUUCUUUCUCGAUAUCAUAUUAAUCUUU	class 0

State whether the measured pKd reaches 8, counting equality as reaching it, for Ic_S2_P4E.1_K4.1_C4.1_H4.1_A4.1_[A6G]_[T7C]_F4.1_[T8C]_T4.1 (ssRNA) RNA: UUUGAUUAAUAUGAUAUCGUUCUUUCUUGUAUGCCAUUCUUUCUCGAUAUCAUAUUAAUCUUU class 0

Dear colleague, could you confirm whether UCUCUUUUACACUAUAUCUCUCUU (ssRNA) [Id_ii_S1_P3E.4_K3.3_C3.2_[C-2T]_H3.3_A3.1_F3.1_T3.2_[A10C]] has pKd at or above 8? class 0

Determine whether this binder has pKd no lower than 8: Id_ii_S4_P4E.2_K4.1_C4.2_[C-2T]_H4.1_A4.1_F4.1_T4.2_[G10A]_[T11G] (ssRNA) RNA: UUUGACAACUGAUCGUUCUUUCUUUUGUAUAUUAAGUUCUUUCUCGAUCAGUUGUCUUU class 1

For this binder, is measured pKd 8 or higher? UCUCUUAAUAUAUAUUAGUUCUCUU (ssRNA) [Id_ii_S1_P4E.3_K4.2_C4.2_[C-2A]_[T-1A]_H4.2_A4.1_F4.1_T4.2] class 0

Test whether the binder UCUCUUUUUAUAUUAUUAAUUCUCUU (ssRNA) [Id_ii_S1_P5E.3_K5.2_C5.2_[C-2T]_H5.2_A5.1_F5.1_T5.2_[T11A]_[A12T]] records pKd of 8 or higher. class 0
